# Test system: enkephalin/endorphin transport system in SK—N—SH cells
# protocol_details: [^3H]deltorphin II uptake in SK—N—SH cells, effect of peptides and amino acids
# Type: cell-based, human
# experimental_parameters: [^3H]deltorphin II 25 nM, NaCl, 30 minutes, compound 1 mM
result_type: Deltorphin II uptake (pmol/30 min/mg protein)
Answers are plain numbers, in pmol/30 min/mg protein.

N=C(N)NCCC[C@H](N)C(=O)O [L-Arg, L-arginine] ... 1.46
NCCCCCC(=O)O [6-amino hexanoic acid] ... 2.92
NCCCC[C@@H](N)C(=O)O [D-Lys, D-lysine] ... 2.60
CC(=O)N[C@@H](CCCCN)C(=O)O [α-N-acetyl-L-Lys] ... 2.82
NCCCCCN [1,5-diaminopentane] ... 3.24
NC(=O)NCCC[C@H](N)C(=O)O [L-Citrulline] ... 2.18
CCOC(=O)[C@@H](N)CCCCN [Lys-ethyl ester, L-lysylethyl ester] ... 0.55
NCC(=O)CCC(=O)O [δ-amino-levulinic acid] ... 2.68

Value sought for every listed molecule: Deltorphin II uptake.
1. NCCCC[C@H](N)C(=O)O [L-Lys, L-lysine]
2. C[N+](C)(C)C[C@H](O)CC(=O)[O-] [L-Carnitine]
3. NCCCC[C@H](N)C(N)=O [L-Lys-amide]

OUT:
0.26
2.34
2.92

* * *

# assay_system: Na+- and Cl--coupled transport system for endogenous opioid peptides (human cell lines ARPE-19, Tat-ARPE-19 and SK-N-SH) (human)
# protocol_details: cell-based or functional assay
// NB: equality with 10 mM counts as NOT MET; only IC50 for inhibition of [3H]deltorphin II uptake in Tat-ARPE-19 cells strictly below is MET

Solved cases below.
Dynorphin A (1-7) (Tyr-Gly-Gly-Phe-Leu-Arg-Arg) (peptide) ... MET
Met-enkephalinamide (Tyr-Gly-Gly-Phe-Met-NH2) (peptide) ... NOT MET
[des-Tyr1]Met-enkephalin (Gly-Gly-Phe-Met) (peptide) ... NOT MET

IN: For this substance, is IC50 for inhibition of [3H]deltorphin II uptake in Tat-ARPE-19 cells lower than 10 mM? Met-enkephalin (Tyr-Gly-Gly-Phe-Met) (peptide)
OUT: NOT MET

IN: IC50 for inhibition of [3H]deltorphin II uptake in Tat-ARPE-19 cells strictly < 10 mM for this substance? [Arg6, Gly7, Leu8]Met-enkephalin (Tyr-Gly-Gly-Phe-Met-Arg-Gly-Leu) (peptide)
OUT: MET

IN: Is 10 mM strictly greater than the substance's reported IC50 for inhibition of [3H]deltorphin II uptake in Tat-ARPE-19 cells? substance: Leu-enkephalin (Tyr-Gly-Gly-Phe-Leu) (peptide)
OUT: MET

IN: Threshold test, IC50 for inhibition of [3H]deltorphin II uptake in Tat-ARPE-19 cells < 10 mM: [Arg6, Phe7]Met-enkephalin (Tyr-Gly-Gly-Phe-Met-Arg-Phe) (peptide)
OUT: MET

IN: Given Dynorphin A (1-6) (Tyr-Gly-Gly-Phe-Leu-Arg) (peptide) , is recorded IC50 for inhibition of [3H]deltorphin II uptake in Tat-ARPE-19 cells strictly lower than 10 mM?
OUT: MET

* * *

# assay_system: Na+- and Cl--coupled transport system for endogenous opioid peptides (human cell lines ARPE-19, Tat-ARPE-19 and SK-N-SH) (human)
# protocol_details: cell-based or functional assay
Exercise: for every item that follows, state its recorded [3H]deltorphin II uptake (%) in Tat-ARPE-19 cells, inhibitor 1 mM.

[Arg6, Gly7, Leu8]Met-enkephalin (Tyr-Gly-Gly-Phe-Met-Arg-Gly-Leu) (peptide) ... 1 % of control

Give measured [3H]deltorphin II uptake (%) in Tat-ARPE-19 cells, inhibitor 1 mM for every item shown.
1. β-Casomorphin (Tyr-Pro-Phe-Pro-Gly-Pro-Ile) (peptide)
2. Met-enkephalin (Tyr-Gly-Gly-Phe-Met) (peptide)
3. Dynorphin A (1-6) (Tyr-Gly-Gly-Phe-Leu-Arg) (peptide)

OUT:
1: 26 % of control; 2: 6 % of control; 3: 2 % of control

Hey, quick one: what's [3H]deltorphin II uptake (%) in Tat-ARPE-19 cells, inhibitor 1 mM for each of these?
1. Dynorphin A (1-7) (Tyr-Gly-Gly-Phe-Leu-Arg-Arg) (peptide)
2. α-Neo-endorphin (1-6) (Tyr-Gly-Gly-Phe-Met-Lys) (peptide)

OUT:
1 % of control
3 % of control

* * *

# System: deltorphin II transport system in Tat-ARPE-19 cells
# protocol_details: Inhibition of [^3H]deltorphin II uptake in Tat-ARPE-19 cells
# Type: cell-based, human
# experimental_parameters: Tat-ARPE-19 cells; [^3H]deltorphin II 50 nM, 30 minutes, NaCl; inhibitor 1 mM
Please go through the items and note down their [^3H] Deltorphin II uptake.
Numbers only, in pmol/mg protein/30 min.

NCC(=O)O [Glycine] ... 7.23
NCCC(=O)N[C@@H](Cc1cnc[nH]1)C(=O)O [Carnosine, β-Ala-His] ... 6.21

Count: 2. Required value per item: [^3H] Deltorphin II uptake.
1. N[C@@H](Cc1ccc(O)cc1)C(=O)O [L-Tyrosine]
2. O=C(O)[C@@H]1CCCN1 [L-Proline]

OUT:
[7.52, 7.31]

IN: Using known records, supply [^3H] Deltorphin II uptake for N[C@H](Cc1ccc(O)cc1)C(=O)O [D-Tyrosine]
OUT: 4.05

* * *

Record form. Attribute: [^3H] Deltorphin II uptake (%) of control. Fill in for each entry.
# System: deltorphin II transport system in control ARPE-19 cells
# protocol_details: Inhibition of [^3H]deltorphin II uptake in control ARPE-19 cells
# Format: cell-based, human
# experimental_parameters: control ARPE-19 cells; [^3H]deltorphin II 50 nM, 30 minutes, NaCl; peptide/antagonist 1 mM; control = 100
Numbers only, in %.

The cases that follow already have their [^3H] Deltorphin II uptake (%) of control on record.
YGGFMRF [[Arg^6, Phe^7] Met-enkephalin, Tyr-Gly-Gly-Phe-Met-Arg-Phe] ... 4
YGGFLRR [Dynorphin A (1-7), Tyr-Gly-Gly-Phe-Leu-Arg-Arg] ... 5
Tyr-Gly-Gly-Phe-Met [Met-enkephalin] ... 5

Kindly give each listed record's [^3H] Deltorphin II uptake (%) of control.
1. YGGFMRGL [[Arg^6, Gly^7, Leu^8[ Met-enkephalin]
2. YGGFLR [Dynorphin A (1-6), Tyr-Gly-Gly-Phe-Leu-Arg]
3. YGGFLRRQF [Dynorphin B (1-9)]
4. Tyr-Gly-Gly-Phe-Leu-Arg-Arg-IIe-Arg-Pro-Lys-Leu-Lys (YGGFLRRIRPKLK) [Dynorphin A (1-13)]

OUT:
1: 4; 2: 5; 3: 5; 4: 4

* * *

# assay_system: Na+- and Cl--coupled transport system for endogenous opioid peptides (human cell lines ARPE-19, Tat-ARPE-19 and SK-N-SH) (human)
# protocol_details: cell-based or functional assay
result_type: [3H]deltorphin II uptake (%) in control ARPE-19 cells, opioid peptide 1 mM

Some substances with known [3H]deltorphin II uptake (%) in control ARPE-19 cells, opioid peptide 1 mM results, for comparison:
Dynorphin A (1-7) (Tyr-Gly-Gly-Phe-Leu-Arg-Arg) (peptide) ... 5 % of control
[Arg6, Phe7]Met-enkephalin (Tyr-Gly-Gly-Phe-Met-Arg-Phe) (peptide) ... 4 % of control
[Arg6, Gly7, Leu8]Met-enkephalin (Tyr-Gly-Gly-Phe-Met-Arg-Gly-Leu) (peptide) ... 4 % of control
Dynorphin A (1-6) (Tyr-Gly-Gly-Phe-Leu-Arg) (peptide) ... 5 % of control

Now, please, on to the next substance.
IN: Give the measured [3H]deltorphin II uptake (%) in control ARPE-19 cells, opioid peptide 1 mM for Met-enkephalin (Tyr-Gly-Gly-Phe-Met) (peptide)
OUT: 5 % of control

* * *

# assay_system: Na+- and Cl--coupled transport system for endogenous opioid peptides (human cell lines ARPE-19, Tat-ARPE-19 and SK-N-SH) (human)
# protocol_details: cell-based or functional assay
Please respond with reported [3H]deltorphin II uptake (%) in Tat-ARPE-19 cells, inhibitor 1 mM for every item in the list.

// known answers, use as guide
[des-Tyr1]Met-enkephalin (Gly-Gly-Phe-Met) (peptide) ... 10 % of control
Leu-enkephalin (Tyr-Gly-Gly-Phe-Leu) (peptide) ... 2 % of control
[Arg6, Phe7]Met-enkephalin (Tyr-Gly-Gly-Phe-Met-Arg-Phe) (peptide) ... 1 % of control
Met-enkephalinamide (Tyr-Gly-Gly-Phe-Met-NH2) (peptide) ... 9 % of control

Consider now this further substance.
IN: Report measured [3H]deltorphin II uptake (%) in Tat-ARPE-19 cells, inhibitor 1 mM; entry is β-Lipotropin (Tyr-Gly-Gly-Phe) (peptide)
OUT: 81 % of control
